- experiment-notes: NCI Yeast Anticancer Drug Screen. Data for the rad50 strain (AID 155);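 also: 0% = growth of vehicle-only cultures of the same strain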
- experimental-setup: S. cerevisiae rad50 strain growth inhibition; at 50.0 µM; stronger effect = higher value
- Method: Growth inhibition of yeast strains with defined genetic alterations is measured as a screen for potential anti-cancer activity. Selected strains with alterations in DNA damage repair or cell cycle control were exposed to compounds and growth inhibition was measured relative to vehicle treated controls. The strain used in this assay is rad50
The panel holds about 79,000 compounds, 15% with a hit somewhere; the sample as a whole holds those more often.
Entry flag: true (1) if growth inhibition reaches 10%; false (0) if it does not.

Exercise: Check the entry CC1OC(OC2C(O)CC(OC3C(O)CC(OC4CCC5(C)C(CCC6C5CCC5(C)C(C7=CC(=O)OC7)CCC65O)C4)OC3C)OC2C)CC(O)C1O (centres undefined) : does growth inhibition equal or exceed 10%?
Key: false (0)

Exercise: Check the entry `CC(C)(c1cccs1)c1cscc1C(=O)O` : does growth inhibition equal or exceed 10%?
Key: false (0)

Exercise: Check the entry `Cc1ccc(C)c2c(Cl)c3c(C)ccc(C)c3nc12` : does growth inhibition equal or exceed 10%?
Key: false (0)

Exercise: Check the entry CC(=O)OC(CC1(C)C(C)CCC23COC(=O)C2=CCCC31)c1ccoc1 (centres undefined) : does growth inhibition equal or exceed 10%?
Key: true (1)

Exercise: Check the entry Cc1ccc(C)c(NC(=O)C(=O)C2C(=O)N(c3ccccc3)N=C2N)c1 (centres undefined) : does growth inhibition equal or exceed 10%?
Key: false (0)

Exercise: Check the entry c1c[nH]c(C2Nc3ccccc3CO2)c1 (centres undefined) : does growth inhibition equal or exceed 10%?
Key: false (0)

Exercise: Check the entry `CNC(=O)OCc1c(COC(=O)NC)c2n(c1C)CSC2` : does growth inhibition equal or exceed 10%?
Key: false (0)

Exercise: Check the entry CCOC(=O)C1CC2(CCC(=O)O2)C(=O)O1 (centres undefined) : does growth inhibition equal or exceed 10%?
Key: false (0)

Exercise: Check the entry `O=[N+]([O-])c1cccc(S/N=C/c2ccccc2)c1` : does growth inhibition equal or exceed 10%?
Key: true (1)

Exercise: Check the entry O=C(O)C(Br)C1(Br)c2ccccc2-c2ccccc21 (centres undefined) : does growth inhibition equal or exceed 10%?
Key: true (1)

Exercise: Check the entry `CCC(=O)[CH-]C(=O)CC.CCC(=O)[CH-]C(=O)CC.[Cu+2]` : does growth inhibition equal or exceed 10%?
Key: true (1)

Exercise: Check the entry `O=C(O)c1cc2cc(O)ccc2[nH]1` : does growth inhibition equal or exceed 10%?
Key: false (0)

Exercise: Check the entry `Cc1nc(/C=C2\C(=O)C=Cc3ccccc32)c(O)o1` : does growth inhibition equal or exceed 10%?
Key: false (0)

Exercise: Check the entry `CCC1=NS(=O)(=O)c2c(ncn2C)N1` : does growth inhibition equal or exceed 10%?
Key: true (1)

Exercise: Check the entry `CC(C)C(=O)OC1(Cc2cccc[n+]2C)CCCCC1` : does growth inhibition equal or exceed 10%?
Key: false (0)

Exercise: Check the entry `O=c1[nH]c(N2CCN(c3ccccc3)CC2)nc2cc3ccccc3cc12` : does growth inhibition equal or exceed 10%?
Key: false (0)

Exercise: Check the entry CC(C)CC(CC(C)C)NCC(C)OC(=O)c1ccc(N(C)C)cc1 (centres undefined) : does growth inhibition equal or exceed 10%?
Key: true (1)

Exercise: Check the entry COc1ccc(C(OC2OC(n3cnc4c(=S)nc(N)[nH]c43)CC2OC(C)=O)(c2ccccc2)c2ccc(OC)cc2)cc1 (centres undefined) : does growth inhibition equal or exceed 10%?
Key: true (1)

Exercise: Check the entry `Cc1cc(Cl)c(C)c(C)c1O` : does growth inhibition equal or exceed 10%?
Key: true (1)

Exercise: Check the entry COc1ccc(/C=C/C2=CC(=O)CC(/C=C/c3ccc(OC)c(OC)c3)C2)cc1OC (centres undefined) : does growth inhibition equal or exceed 10%?
Key: true (1)

Exercise: Check the entry `CS(=O)(=O)N(CCC#N)c1ccc(C=O)cc1` : does growth inhibition equal or exceed 10%?
Key: true (1)

Exercise: Check the entry `N#C/C(=C\c1cccc(Cl)c1)C(=O)c1ccccc1` : does growth inhibition equal or exceed 10%?
Key: false (0)

Exercise: Check the entry `CN(C)NC(=S)Nc1ccccc1` : does growth inhibition equal or exceed 10%?
Key: false (0)

Exercise: Check the entry `C[C@@]12CCC(=O)c3coc(c31)C(=O)c1cc3c(cc12)C(=O)C=CC3=O` : does growth inhibition equal or exceed 10%?
Key: true (1)

----------
Please go through the items and note down their growth inhibition.
- experiment-notes: NCI Yeast Anticancer Drug Screen. Data for the bub3 strain (AID 167)
- experimental-setup: S. cerevisiae bub3 mutant strain, at 50.0 µM, stronger effect = higher value
About 79,000 compounds went through this panel and 15% of them were active in at least one assay; those are over-represented in the sample as a whole.
Provide the reading as a plain figure in %.

Exercise: // returns reported growth inhibition for input O=C(O)C1Cc2ccccc2OC1=O (configuration not stated)
Key: 0.35

Exercise: // returns reported growth inhibition for input `COc1cc(O)c2c(c1)Cc1cc(C)cc(O)c1C2=O`
Key: 16.6

Exercise: // returns reported growth inhibition for input `CCCCn1cnc2ccc3nc(-c4ccccc4)c(-c4ccccc4)nc3c2c1=O`
Key: 1.5

Exercise: // returns reported growth inhibition for input `Cc1cc(-n2cnc3c(N(CCO)CCO)ncnc32)ccc1[N+](=O)[O-]`
Key: 0.5

Exercise: // returns reported growth inhibition for input `Cn1c(=O)oc2cc(Br)ccc21`
Key: 23

Exercise: // returns reported growth inhibition for input Cc1ccccc1OCC(O)COC(=O)CCS(=O)(=O)O (configuration not stated)
Key: 37.2

Exercise: // returns reported growth inhibition for input `CC[n+]1c(C)sc2cc(Cl)c(-c3ccccc3)cc21`
Key: -3.25

Exercise: // returns reported growth inhibition for input `N=c1ccc2nc(N)nn(O)c-2c1`
Key: -37.3

Exercise: // returns reported growth inhibition for input C=CCN(N=O)C(=O)NCCCCC(NC(C)=O)C(=O)NCc1ccccc1 (configuration not stated)
Key: 5.1

Exercise: // returns reported growth inhibition for input `CNc1nc(N(C)C)nc(N(C)C)n1`
Key: 26.8

Exercise: // returns reported growth inhibition for input `CCOC(=O)CC[C@H](NC(=O)c1[nH]cnc1/N=N/N(C)C)C(=O)OCC`
Key: -12.1

Exercise: // returns reported growth inhibition for input `CCc1c(C)c2cc(N)ccc2[nH]c1=O`
Key: -9.9

----------
Please go through the items and note down their growth inhibition.
- experiment-notes: NCI Yeast Anticancer Drug Screen. Data for the bub3 strain (AID 167)
- experimental-setup: S. cerevisiae bub3 mutant strain, at 50.0 µM, stronger effect = higher value
The panel holds about 79,000 compounds, 15% with a hit somewhere; the sample as a whole holds those more often.
Provide the reading as a plain figure in %.

Exercise: // returns reported growth inhibition for input `C#CCN(C)Cc1cc(OC)c(OC)c(OC)c1`
Key: 7.65

Exercise: // returns reported growth inhibition for input `CCOC(=O)c1cnc(C)nc1Nc1ccccc1`
Key: 0.9

Exercise: // returns reported growth inhibition for input O=C(O)C1CC1(c1ccccc1)c1ccccc1 (configuration not stated)
Key: -12.2

Exercise: // returns reported growth inhibition for input CC1=C(c2ccccc2)OS(=O)(=O)CC1N(C)C (configuration not stated)
Key: -7.4

Exercise: // returns reported growth inhibition for input `CN(C)Cc1cc(C(=O)c2ccccc2)c(O)cc1O`
Key: -2.05

Exercise: // returns reported growth inhibition for input `CC1(C)C(=O)N=C(N)N1C(=O)OCc1ccccc1`
Key: -10

Exercise: // returns reported growth inhibition for input `Cc1ccc(-c2nnc(-c3cccc4ccccc34)o2)cc1`
Key: -44.1

Exercise: // returns reported growth inhibition for input `CC(C)=NNc1snnc1C(N)=O`
Key: -13.2

Exercise: // returns reported growth inhibition for input `Cc1cc(C)n(-c2ccnc(-n3nc(C)cc3C)n2)n1`
Key: 21.6

Exercise: // returns reported growth inhibition for input `C=CC(=O)OCCCS(=O)(=O)[O-].C=CC(=O)OCCCS(=O)(=O)[O-].NC1CCCCC1N.[Pt+4]`
Key: 14.1

Exercise: // returns reported growth inhibition for input `N#Cc1[nH]c(=S)[nH]c1N`
Key: 11.8

Exercise: // returns reported growth inhibition for input `Nc1ccccc1Sc1ccc(C(=O)O)cc1[N+](=O)[O-]`
Key: 22.2

----------
- experiment-notes: NCI Yeast Anticancer Drug Screen. Data for the mlh1 rad18 strain (AID 175)
- experimental-setup: S. cerevisiae mlh1 rad18 strain growth inhibition; at 50.0 µM; stronger effect = higher value
About 79,000 compounds went through this panel and 15% of them were active in at least one assay; those are over-represented in the sample as a whole.
Entry flag: condition met if growth inhibition reaches 20%; condition not met if it does not.

Exercise: Check the entry `COc1ccc2nc(NCN3C(=O)c4ccccc4C3=O)sc2c1` : does growth inhibition equal or exceed 20%?
Key: condition not met

Exercise: Check the entry `O=C(O)C(Cc1ccccc1)C(=O)O.[NH2-].[NH2-].[Pt+2]` : does growth inhibition equal or exceed 20%?
Key: condition met

Exercise: Check the entry `NC(N)=NS(=O)(=O)c1ccc(Nc2c3ccccc3nc3c(C(=O)NNCCO)cccc23)cc1` : does growth inhibition equal or exceed 20%?
Key: condition not met

Exercise: Check the entry `COc1ccc(-c2c(C#N)c(O)n(NS(=O)(=O)c3ccc(C)cc3)c(=O)c2C#N)cc1` : does growth inhibition equal or exceed 20%?
Key: condition met

Exercise: Check the entry `COC(=O)c1cc2cc3ccccc3cc2cc1C(=O)OC` : does growth inhibition equal or exceed 20%?
Key: condition not met

Exercise: Check the entry `[N-]=[N+]=NC(=O)C1C(c2ccccc2)=C1c1ccccc1` : does growth inhibition equal or exceed 20%?
Key: condition not met
